The measured values listed here are drawn from paper PMC12363342.

target or system: KDM4D (Homo sapiens)
Construct: KDM4AM1-L359,[38]; KDM4DM1-L359,[39]; KDM4EM1-R336,[30]; His6 (N); made in house; host or cells: Escherichia coli
Sequence (Q6B0I6 1-359): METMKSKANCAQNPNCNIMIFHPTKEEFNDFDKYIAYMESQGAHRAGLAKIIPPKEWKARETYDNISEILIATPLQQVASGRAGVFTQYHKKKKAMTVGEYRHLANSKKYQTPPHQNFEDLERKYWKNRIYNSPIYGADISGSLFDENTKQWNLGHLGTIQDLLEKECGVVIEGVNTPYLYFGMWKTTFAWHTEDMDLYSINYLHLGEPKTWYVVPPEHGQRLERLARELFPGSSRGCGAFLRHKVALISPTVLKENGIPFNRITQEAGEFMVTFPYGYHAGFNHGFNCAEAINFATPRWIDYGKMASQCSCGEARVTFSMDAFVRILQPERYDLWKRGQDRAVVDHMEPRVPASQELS
assay name: LC-MS demethylation activity assay, KDM4D
Format: biochemical
assay conditions: 2 μM KDM4D, 10 μM peptide, 10 μM FAS, 100 μM LAA, 20 μM 2OG, HEPES pH 7.5, 2 h, room temperature
Square brackets hold non-standard residues; d marks the D form. Ends that are not written are not given here. Lys(Me3) = C[N+](C)(C)CCCC[C@H](N)C(=O)O; Lys(Me2) = CN(C)CCCC[C@H](N)C(=O)O
endpoint label: substrate conversion (demethylation) by KDM4D

[
  {
    "substance": "KKKA[Lys(Me3)]KAGATAGKRK [Peptide H1.3K24me3, 15-mer linker histone H1.3 residues 20-34 peptide, tri-methylated K24]",
    "reported": "~68%"
  },
  {
    "substance": "KKKAR[Lys(Me2)]SAGAAKRKA [Peptide H1.4K25me2, 15-mer linker histone H1.4 residues 20-34 peptide, di-methylated K25]",
    "reported": "> 40%"
  },
  {
    "substance": "KKKAA[Lys(Me2)]KAGGTPRKA [Peptide H1.2K25me2, 15-mer linker histone H1.2 residues 20-34 peptide, di-methylated K25]",
    "reported": "20–35%"
  }
]

---

As shown below, each of these substances has a reported mono-methylated product formed by KDM4E value.
target or system: KDM4E (Homo sapiens, UniProt B2RXH2)
Construct: KDM4DM1-L359,[39]; KDM4EM1-R336,[30]; His6 (N); made in house; host or cells: Escherichia coli
assay name: LC-MS demethylation activity assay, KDM4E
Assay type: biochemical
assay conditions: 2 μM KDM4E, 10 μM peptide, standard conditions, 2 h, room temperature
Square brackets hold non-standard residues; d marks the D form. Ends that are not written are not given here. Lys(Me3) = C[N+](C)(C)CCCC[C@H](N)C(=O)O; Lys(Me2) = CN(C)CCCC[C@H](N)C(=O)O
endpoint label: mono-methylated product formed by KDM4E

[
  {
    "substance": "KKKAAK[Lys(Me2)]AGGTPRKA [Peptide H1.2K26me2, 15-mer linker histone H1.2 residues 20-34 peptide, di-methylated K26]",
    "endpoint label": "mono-methylated product formed by KDM4E",
    "reported": "~64%"
  },
  {
    "substance": "KKKAR[Lys(Me3)]SAGAAKRKA [Peptide H1.4K25me3, 15-mer linker histone H1.4 residues 20-34 peptide, tri-methylated K25]",
    "endpoint label": "mono-methylated product formed by KDM4E",
    "reported": "~67%"
  },
  {
    "substance": "KKKA[Lys(Me3)]KAGATAGKRK [Peptide H1.3K24me3, 15-mer linker histone H1.3 residues 20-34 peptide, tri-methylated K24]",
    "endpoint label": "mono-methylated product formed by KDM4E",
    "reported": "~38%"
  },
  {
    "substance": "KKKAA[Lys(Me2)]KAGGTPRKA [Peptide H1.2K25me2, 15-mer linker histone H1.2 residues 20-34 peptide, di-methylated K25]",
    "endpoint label": "mono-methylated product formed by KDM4E",
    "reported": "~64%"
  },
  {
    "substance": "KKKAA[Lys(Me3)]KAGGTPRKA [Peptide H1.2K25me3, 15-mer linker histone H1.2 residues 20-34 peptide, tri-methylated K25]",
    "endpoint label": "mono-methylated product formed by KDM4E",
    "reported": "~30%"
  },
  {
    "substance": "KKKAAK[Lys(Me3)]AGGTPRKA [Peptide H1.2K26me3, 15-mer linker histone H1.2 residues 20-34 peptide, tri-methylated K26]",
    "endpoint label": "mono-methylated product formed by KDM4E",
    "reported": "~30%"
  },
  {
    "substance": "KKKATK[Lys(Me3)]AAGAGAAK [Peptide H1.5K26me3, 15-mer linker histone H1.5 residues 20-34 peptide, tri-methylated K26]",
    "endpoint label": "mono-methylated product formed by KDM4E",
    "reported": "~16%"
  }
]

---

target or system: KDM4E (Homo sapiens)
Construct: KDM4DM1-L359,[39]; KDM4EM1-R336,[30]; His6 (N); made in house; host or cells: Escherichia coli
Sequence (B2RXH2 1-336): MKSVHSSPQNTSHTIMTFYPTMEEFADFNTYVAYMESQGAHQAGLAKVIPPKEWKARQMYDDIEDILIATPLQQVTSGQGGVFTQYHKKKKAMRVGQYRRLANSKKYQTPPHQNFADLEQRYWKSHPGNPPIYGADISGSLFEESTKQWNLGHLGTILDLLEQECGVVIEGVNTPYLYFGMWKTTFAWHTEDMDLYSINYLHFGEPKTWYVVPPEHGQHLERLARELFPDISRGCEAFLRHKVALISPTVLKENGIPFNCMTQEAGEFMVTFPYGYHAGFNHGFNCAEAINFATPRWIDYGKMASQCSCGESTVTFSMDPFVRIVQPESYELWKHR
assay name: formaldehyde dehydrogenase (FDH)-coupled demethylation assay, KDM4E
Assay type: biochemical
assay conditions: FDH-coupled fluorescence assay; KDM4E (400 nM), peptide 1–50 μM, FAS 20 μM, LAA 200 μM, 2OG 200 μM, NAD+ 500 μM, FDH 2.0 μM, HEPES pH 7.5; mean ± SEM (n = 3)
Square brackets hold non-standard residues; d marks the D form. Ends that are not written are not given here. Lys(Me3) = C[N+](C)(C)CCCC[C@H](N)C(=O)O
Tick 1 if kcat (KDM4E) is 0.03 s⁻¹ or greater. Tick 0 if kcat (KDM4E) is less than 0.03 s⁻¹.

[
  {
    "substance": "KKKA[Lys(Me3)]KAGATAGKRK [Peptide H1.3K24me3, 15-mer linker histone H1.3 residues 20-34 peptide, tri-methylated K24]",
    "target or system": "KDM4E (Homo sapiens)",
    "class": 1
  },
  {
    "substance": "KKKAA[Lys(Me3)]KAGGTPRKA [Peptide H1.2K25me3, 15-mer linker histone H1.2 residues 20-34 peptide, tri-methylated K25]",
    "target or system": "KDM4E (Homo sapiens)",
    "class": 1
  },
  {
    "substance": "KKKAR[Lys(Me3)]SAGAAKRKA [Peptide H1.4K25me3, 15-mer linker histone H1.4 residues 20-34 peptide, tri-methylated K25]",
    "target or system": "KDM4E (Homo sapiens)",
    "class": 1
  },
  {
    "substance": "KKKAAK[Lys(Me3)]AGGTPRKA [Peptide H1.2K26me3, 15-mer linker histone H1.2 residues 20-34 peptide, tri-methylated K26]",
    "target or system": "KDM4E (Homo sapiens)",
    "class": 1
  },
  {
    "substance": "KKKATK[Lys(Me3)]AAGAGAAK [Peptide H1.5K26me3, 15-mer linker histone H1.5 residues 20-34 peptide, tri-methylated K26]",
    "target or system": "KDM4E (Homo sapiens)",
    "class": 0
  }
]

---

target or system: KDM4E (Homo sapiens, UniProt B2RXH2)
Construct: KDM4DM1-L359,[39]; KDM4EM1-R336,[30]; His6 (N); made in house; host or cells: Escherichia coli
assay name: LC-MS demethylation activity assay, KDM4E
Format: biochemical
assay conditions: 2 μM KDM4E, 10 μM peptide, 10 μM FAS, 100 μM LAA, 20 μM 2OG, HEPES pH 7.5, 2 h, room temperature
Protocol: The substrate specificity of JmjC KDMs for H1 was examined using liquid chromatography coupled to mass spectrometry (LC-MS) assays. The H1 peptides (10 μM) were incubated with the recombinant KDM (2 μM) in HEPES buffer at pH 7.5 at room temperature for 2 h, in the presence of ferrous(II) ammonium sulfate (FAS, 10 μM), sodium ascorbate (LAA, 100 μM) and 2OG (20 μM), and then quenched with formic acid. […]
Square brackets hold non-standard residues; d marks the D form. Ends that are not written are not given here. Lys(Me3) = C[N+](C)(C)CCCC[C@H](N)C(=O)O; Lys(Me2) = CN(C)CCCC[C@H](N)C(=O)O
endpoint label: substrate conversion (demethylation) by KDM4E

[
  {
    "substance": "KKKAK[Lys(Me3)]AGATAGKRK [Peptide H1.3K25me3, 15-mer linker histone H1.3 residues 20-34 peptide, tri-methylated K25]",
    "reported": "< 10%"
  },
  {
    "substance": "KKKAR[Lys(Me3)]SAGAAKRKA [Peptide H1.4K25me3, 15-mer linker histone H1.4 residues 20-34 peptide, tri-methylated K25]",
    "reported": "~95%"
  },
  {
    "substance": "KKKAA[Lys(Me3)]KAGGTPRKA [Peptide H1.2K25me3, 15-mer linker histone H1.2 residues 20-34 peptide, tri-methylated K25]",
    "reported": "~80%"
  },
  {
    "substance": "KKKAR[Lys(Me2)]SAGAAKRKA [Peptide H1.4K25me2, 15-mer linker histone H1.4 residues 20-34 peptide, di-methylated K25]",
    "reported": "~50%"
  }
]
